molecular target: Glucagon receptor (GCGR), stably expressed on HEK293 cells; experiment: cell-based or functional assay
Where no end group is shown, it is not given here. [ ]: non-standard residue; d: D form. Aib = CC(C)(N)C(=O)O
metricName: GCGR (nM EC50), receptor-mediated cAMP production in HEK293 cells (nM)

{"binder": "H[Aib]QGTFTSDYSKYLEERAAKEFIAWLESGG-NH2 (not fully specified (residue 20); printed as HAibQGTFTSDYSKYLEERAAK*EFIAWLESGG) [dgc009]", "testResult": 8.22}
{"binder": "H[Aib]QGTFTSDYSKYLEERAAKEFIAWLEAGG-NH2 (not fully specified (residue 20)) [dgc006]", "testResult": 6.41}
{"binder": "H[Aib]QGTFTSDYSKYLEERAAKEFIAWLEGEG-NH2 (not fully specified (residue 20); printed as HAibQGTFTSDYSKYLEERAAK*EFIAWLEGEG) [dgc021]", "testResult": 3.93}
{"binder": "HSQGTFTSDYSKYLDERAAKEFIAWLEAGG-NH2 (not fully specified (residue 20); printed as HSQGTFTSDYSKYLDERAAK*EFIAWLEAGG) [dgc001]", "testResult": 0.806}
{"binder": "H[Aib]QGTFTSDYSKYLEERAAKEFIAWLEAGG-NH2 (not fully specified (residue 20)) [dgc011]", "testResult": 4.13}
